Listed compounds paired with reported melting point
Where a name gives a salt, the structure may show the parent alone.

Use the examples below as a reference point.
>>> measured_value("CN1CCc2nc(C(=O)N[C@@H]3CCN(S(C)(=O)=O)C[C@@H]3NC(=O)c3cc4cc(Cl)ccc4[nH]3)sc2C1 (relative stereo) (as salt: hydrochloride)")
"228 to 245 °C (dec.)"
>>> measured_value("CN1CCc2nc(C(=O)N[C@@H]3CNCC[C@@H]3NC(=O)c3cc4cc(Cl)ccc4[nH]3)sc2C1 (relative stereo) (as salt: hydrochloride) [Example 118, dihydrochloride]")
"240 to 258 °C (dec.)"
>>> measured_value("CCOC(=O)N1C[C@@H](NC(=O)c2cc3cc(Cl)ccc3[nH]2)[C@H](NC(=O)c2nc3c(s2)CN(C(C)C)CC3)C1 (as salt: hydrochloride) [Example 116]")
"225 to 228 °C (dec.)"
>>> measured_value("CN1CCc2nc(C(=O)N[C@@H]3CN(C(=O)CC(C)(C)C)CC[C@@H]3NC(=O)c3cc4cc(Cl)ccc4[nH]3)sc2C1 (relative stereo) (as salt: hydrochloride) [Example 136]")
"260 to 265 °C (dec.)"

# ---- query compound ----
# melting point (compound: CN1CCc2nc(C(=O)N[C@@H]3CCS(=O)(=O)C[C@@H]3NC(=O)c3cc4cc(F)ccc4[nH]3)sc2C1 (relative stereo) (as salt: hydrochloride) [Example 183] ) is 244 to 249 °C
